# experiment.description: inhibitors of hydroxyurea-induced Chk1 phosphorylation, primary screen, imaging, HeLa, phospho-Chk1 antibody, percent positive cells (AID 1186)
# test.parameters: hydroxyurea-induced phospho-Chk1 immunofluorescence imaging, higher = more signal
Consider the following compounds; for each one, report its z-score.
API note: the answer field is a bare number with no unit suffix.

What z-score value was documented for this compound, CN1C(=O)C2C=CC(C(O)c3ccc(-c4ccccc4)s3)N(Nc3ccccc3)C2C1=O (centres undefined) ?
-0.11

State the recorded z-score for this entry: C=CCC(OC(C)=O)[C@@H]1[C@@H](N(Cc2ccc(-c3ccccc3)cc2)C(=O)c2cccc3ccccc23)c2cc(OCCCO)ccc2N1C(=O)c1ccc2ccccc2c1 (some centres undefined)
-0.293

Could you share which z-score value was measured for `CC(C)CNC(=O)[C@@H]1c2ccccc2C(=O)N(C(C)C)[C@H]1c1ccc(CO)cc1` ?
-0.586

Return reported z-score; argument: `COC(=O)[C@@]1(Cc2ccccc2CN=[N+]=[N-])COC(c2ccc(OCCCO)cc2)=N1`
-0.184

###

# experiment.description: binders from COS7 lysate, DM2A8 probe, primary screen, torsin A project, cell lysate, small-molecule microarray, fluorescence 635/667 (AID 1065)
# test.parameters: higher = more signal, COS7 lysate expressing mutant human TOR1A
For each of the molecules below, state its composite z-score.
Form field (numeric): enter value without unit.

Need composite z-score, item CN1C=C(C(=O)OCCS(C)(=O)=O)C(C(=O)OCCS(C)(=O)=O)=CC(CCCO)=CC1c1ccc(CN2CCCC2)cc1 (stereo not given)
0.156

// lookup composite z-score for CCCCCCCCCCC(O)C1C=CC2C(=O)N(C)C(=O)C2N1N1CCCCC1 (stereo not given)
-0.346

Endpoint output: composite z-score of `[N-]=[N+]=Nc1ccccc1[C@@H]1OC(c2ccc(OCCCO)cc2)=N[C@]1(Cc1ccccc1)C(N)=O` . Value?
-0.334

Value lookup for composite z-score; key = `C=CC[C@@]12N=C(c3ccc(OCCCO)cc3)O[C@@H]1c1ccccc1N(Cc1ccccc1)C2=O`
1.43

Bench note: what composite z-score did `C=C(/C(=C/C[C@@H](OC(C)=O)c1ccccc1OCCO)c1cc(C(=O)OC)ccc1OC)C(C)C` show?
0.179

###

# target.system: Pro-neuregulin-1, membrane-bound isoform (Homo sapiens)
# experiment.description: NRG1 binders on small-molecule microarrays, primary screen, psychiatric disease protein project, biochemical, small-molecule microarray, fluorescence 635/667 (AID 1075);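 further: score combines 667 nm spot fluorescence with signal to noise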
# test.parameters: NRG1 binding, 635 nm fluorescence, higher = more signal
recorded.endpoint: composite z-score

# lookup: composite z-score of `C=CCOC(=O)[C@@H]1[C@H]2C(=O)O[C@H](c3ccccc3)[C@H](c3ccccc3)N2[C@H](c2ccc(OCCOC(=O)[C@H]3C[C@H]4C(=O)NCC(=O)N4[C@H]3c3ccc(O)cc3)cc2)[C@@]12C(=O)Nc1ccc(I)cc12`
0.675

Which composite z-score value is on record for `COC(=O)[C@@]1(Cc2ccccc2CN=[N+]=[N-])COC(c2ccc(OCCCO)cc2)=N1` ?
0.305

Tell me the measured composite z-score of `CC(C)C(=C=CC[C@@H](O)c1ccccc1OCCO)C[C@@H](O)c1cc(Cl)cc(Cl)c1O` , please.
1.48

Can you look up the measured composite z-score of `N[C@@H](Cc1ccccc1)Cn1cc(C2(O)CCCCC2)nn1` for me?
0.138

# input compound: `[N-]=[N+]=NCc1ccccc1C[C@]1(C(=O)N2CCCCC2)N=C(c2ccc(OCCCO)cc2)O[C@H]1c1ccccc1` ; wanted: its composite z-score
0.618

I am curious: what composite z-score value has been reported for `COC(=O)[C@H](Cc1ccc(O)cc1)N1CC2=CCCC=C[C@@H]2[C@H]1[C@H](O)Cc1ccccc1` ?
0.166

Please report the recorded composite z-score for `COc1ccc([Si](C)(C)[C@H]2[C@H](CC(=O)N3Cc4ccccc4C[C@H]3CO)O[C@@]3(C(=O)N(Cc4cccc(N5C(=O)c6cccc7cccc5c67)c4)c4ccccc43)[C@@H]2C)cc1` .
0.997

Query: composite z-score; subject: `C=C(COC)/C(=C/C[C@H](OC(=O)c1ccncc1)c1ccc(OCCO)cc1)c1cc(C(=O)OC)ccc1OC`
0.358

Which measured composite z-score value corresponds to `COCCOC(=O)N1C(=O)[C@@]2(c3cc(C#CCCO)ccc31)[C@H](C(=O)N1CCc3cc(OC)c(OC)cc3C1)[C@H]1C(=O)O[C@H](c3ccccc3)[C@H](c3ccccc3)N1[C@@H]2c1ccccc1OCCO` ?
0.317

Requested field: composite z-score. Item: `CC(C)CNC(=O)[C@@H]1c2ccccc2C(=O)N(C(C)C)[C@H]1c1ccc(CO)cc1`
-0.566

composite z-score lookup needed for NC(=O)N1C(=O)C2C(C1=O)C1C=C(CCCO)C2C(c2ccc(CN3CCCC3)cc2)N1Cc1cccc(OC(F)(F)F)c1 (stereo not given) , thanks.
-0.299

composite z-score lookup needed for `CCOC(=O)C1=CC[C@@H](c2ccccc2)N(S(=O)(=O)c2ccc(C)cc2)[C@H]1C#N` , thanks.
0.741

Give the measured composite z-score of CC(C)N1CC=CC23O[C@@H]4C=CCCOC(=O)C4[C@H]2C(=O)N(CCCCCO)[C@@H]3C1=O (stereo not given in full) .
1.93

Requested field: composite z-score. Item: `COCCn1c(C(=O)N2CCCC2)cc2c1C[C@H]1CN(C(=O)c3ccccc3)[C@@](Cc3ccccc3)(C(=O)OC)[C@@H]21`
2.16

What does the data say about its composite z-score? Entry: CCCCC(O)C1C=CC2C(=O)NC(=O)C2N1Nc1ccc(Cl)cc1Cl (stereo not given)
1.3
